Test system: green foxtail
Test: Test C pre-/postemergence test
Format: in vivo, Setaria viridis
Settings: 31 g ai/ha, Preemergence; scale 0 to 100
From the text: Seeds of plant species selected from blackgrass (Alopecurus myosuroides), downy brome (Bromus tectorum), green foxtail (Setaria viridis), Italian ryegrass (Lolium multiflorum), wheat (Triticum aestivum), wild oat (Avena fatua), catchweed bedstraw (Galium aparine), Russian thistle (Salsola kali), […] […]
Entries and their measured Foxtail, Green plant response rating follow.
# output: bare number, no unit

As a guide, the following entries are already answered.
| Compound | Foxtail, Green plant response rating |
| --- | --- |
| Cc1cc[n+]([O-])c(S(=O)(=O)Cc2c(C(F)(F)F)nn(C)c2OC(F)F)c1 | 100 |
| Cn1nc(C(F)(F)F)c(CS(=O)(=O)c2cccc[n+]2[O-])c1OC(F)F | 100 |

Could you now look at the following compound, please?
For Cn1nc(C(F)(F)F)c(C(Cl)S(=O)(=O)c2cccc[n+]2[O-])c1Cl (stereo not drawn) , what is its reported Foxtail, Green plant response rating? 100

----------
tested on: Italian ryegrass; assay: Test C pre-/postemergence test; type: in vivo, Lolium multiflorum; conditions: 31 g ai/ha, Preemergence; scale 0 to 100
Readout label: Ryegrass, Italian plant response rating
When you answer, write just the number.

# example entries with known answers
| Compound | Numeric value |
| --- | --- |
| Cn1nc(C(F)(F)F)c(C[S+]([O-])c2cccc[n+]2[O-])c1OC(F)F (centres unmarked) [Compound 3] | 60 |
| Cc1cc[n+]([O-])c([S+]([O-])Cc2c(C(F)(F)F)nn(C)c2OC(F)F)c1 (centres unmarked) [Compound 1] | 60 |

Which Ryegrass, Italian plant response rating reading was recorded for the compound Cn1nc(C(F)(F)F)c(CS(=O)(=O)c2ccc(Cl)c[n+]2[O-])c1OC(F)F [Compound 7] ? 0

Data request, read-out Ryegrass, Italian plant response rating, for Cn1nc(C(F)(F)F)c(C(Cl)S(=O)(=O)c2cccc[n+]2[O-])c1Cl (centres unmarked) [Compound 12] 0

Requested field: Ryegrass, Italian plant response rating. Item: Cn1nc(C(F)(F)F)c(C[S+]([O-])c2ccc(Br)c[n+]2[O-])c1OC(F)F (racemic) [Compound 16] 30

----------
Tested on: broadleaf signalgrass
Experiment: Test F preemergence test
Format: in vivo, Brachiaria platyphylla
Settings: Preemergence; 31 g ai/ha; scale 0 to 100
Text: Seeds of plant species selected from bermudagrass (Cynodon dactylon), Surinam grass (Brachiaria decumbens), large crabgrass (Digitaria sanguinalis), green foxtail (Setaria viridis), goosegrass (Eleusine indica), johnsongrass (Sorghum halepense), kochia (Kochia scoparia), pitted morningglory (Ipomoea lacunosa), purple nutsedge (Cyperus rotundus), common ragweed (Ambrosia elation), mustard (Brassica nigra), guineagrass (Panicum maximum), […] […]
Measured Plant response rating, Signalgrass accompanies every entry in the list below.
Format: numeric value only, no unit, no commentary.

Query Plant response rating, Signalgrass on broadleaf signalgrass for CC(Oc1c(C[S+]([O-])c2cccc[n+]2[O-])c(C(F)(F)F)nn1C)C(F)(F)F (stereo not drawn) 25

Please state recorded Plant response rating, Signalgrass (tested on broadleaf signalgrass) of CCn1nc(C(F)(F)F)c(C[S+]([O-])c2cc(C)cc[n+]2[O-])c1OCC(F)(F)F (racemic) 30

Fill in the recorded Plant response rating, Signalgrass for this molecule, with broadleaf signalgrass as test system: CC(c1c(C(F)(F)F)nn(C)c1OCC(F)(F)F)S(=O)(=O)c1cccc[n+]1[O-] (racemic) 35

----------
tested on: kochia; assay: Test C pre-/postemergence test; format: in vivo, Kochia scoparia; settings: 31 g ai/ha, Preemergence; scale 0 to 100
Let's look at some compounds and their measured Kochia plant response rating.

The following compounds have reported results that may help.
| Compound | Kochia plant response rating |
| --- | --- |
| Cn1nc(C(F)(F)F)c(C[S+]([O-])c2cccc[n+]2[O-])c1OC(F)F (stereo not drawn) [Compound 3] | 80 |
| Cn1nc(C(F)(F)F)c(CS(=O)(=O)c2cccc[n+]2[O-])c1OC(F)F [Compound 4] | 0 |
| Cc1cc[n+]([O-])c(S(=O)(=O)C(C)c2c(C(F)(F)F)nn(C)c2Cl)c1 (racemic) [Compound 14] | 0 |
| Cc1cc[n+]([O-])c([S+]([O-])Cc2c(C(F)(F)F)nn(C)c2OC(F)F)c1 (stereo not drawn) [Compound 1] | 100 |
| CC(c1c(C(F)(F)F)nn(C)c1Cl)S(=O)(=O)c1cccc[n+]1[O-] (stereo not drawn) [Compound 10] | 0 |

Now consider a different compound.
What measured Kochia plant response rating goes with Cn1nc(C(F)(F)F)c(C(Cl)S(=O)(=O)c2cccc[n+]2[O-])c1Cl (stereo not drawn) [Compound 12] ? 0

----------
Quick reference: Plant response rating, Sedge, Umbrella of the listed items.
system: umbrella sedge; experiment: Test C flooded paddy test; type: in vivo, Cyperus difformis; details: Flood, 250 g ai/ha; scale 0 to 100, 0 no effect, 100 complete control; 13 to 15 days
Give only the figure.

Solved entries:
| Molecule | Plant response rating, Sedge, Umbrella |
| --- | --- |
| Cc1cc[n+]([O-])c([S+]([O-])Cc2c(C(F)(F)C(F)(F)F)nn(C)c2OCC(F)(F)F)c1 (centres unmarked) [Compound 91] | 100 |
| CCn1nc(C(F)(F)F)c(C[S+]([O-])c2cccc[n+]2[O-])c1OCC(F)(F)F (racemic) [Compound 65] | 100 |

Which Plant response rating, Sedge, Umbrella reading was recorded for the molecule Cn1nc(C(F)(F)F)c(C[S+]([O-])c2cc(C(C)(C)C)cc[n+]2[O-])c1OC(F)F (racemic) [Compound 24] ? 95

Which Plant response rating, Sedge, Umbrella is listed for Cn1nc(C(F)(F)F)c(CS(=O)(=O)c2ccc(Cl)c[n+]2[O-])c1OCC(F)(F)F [Compound 73] ? 65

----------
Each entry below carries its recorded Bromegrass, Downy plant response rating.
system: downy brome; assay: Test C pre-/postemergence test; type: in vivo, Bromus tectorum; conditions: preemergence, 125 g ai/ha; scale 0 (no effect) to 100 (complete control)
// return a plain number; no unit text

Recorded results for 5 compounds are shown here.
| Compound | Readout label | Numeric value |
| --- | --- | --- |
| Cn1nc(C(F)(F)F)c(CS(=O)(=O)c2ccc(Cl)c[n+]2[O-])c1Cl | Bromegrass, Downy plant response rating | 0 |
| Cn1nc(C(F)(F)F)c(C[S+]([O-])c2cc(C(F)(F)F)cc[n+]2[O-])c1Cl (racemic) | Bromegrass, Downy plant response rating | 20 |
| Cc1cc[n+]([O-])c([S+]([O-])Cc2c(C(F)(F)F)nn(C)c2Cl)c1 (racemic) | Bromegrass, Downy plant response rating | 70 |
| Cn1nc(C(F)(F)F)c(C[S+]([O-])c2ccc(Br)c[n+]2[O-])c1OC(F)F (racemic) | Bromegrass, Downy plant response rating | 55 |
| CC(c1c(C(F)(F)F)nn(C)c1Cl)S(=O)(=O)c1cccc[n+]1[O-] (stereo not shown) | Bromegrass, Downy plant response rating | 10 |

Lookup: Bromegrass, Downy plant response rating / downy brome / CC(c1c(C(F)(F)F)nn(C)c1OCC(F)(F)F)S(=O)(=O)c1cccc[n+]1[O-] (racemic) 70

Tell me reported Bromegrass, Downy plant response rating for Cc1cc[n+]([O-])c(S(=O)(=O)Cc2c(C(F)(F)F)nn(C)c2OC(F)F)c1 , tested with downy brome. 45

----------
test system: lambsquarters; assay: Test C pre-/postemergence test; format: in vivo, Chenopodium album; conditions: Postemergence, 62 g ai/ha; scale 0 to 100, 0 no effect, 100 complete control
Readout label: Plant response rating, Lambsquarters
Give only the figure.

Sample answers from the record:
| Molecule | Tested system | Numeric value |
| --- | --- | --- |
| CCn1nc(C(F)(F)F)c(C(C)S(=O)(=O)c2cccc[n+]2[O-])c1OCC(F)(F)F (stereo not shown) [Compound 69] | lambsquarters | 0 |
| Cn1nc(C(F)(F)F)c(C[S+]([O-])c2ccc(Cl)c[n+]2[O-])c1OC(F)F (stereo not shown) [Compound 6] | lambsquarters | 10 |
| CC(c1c(C(F)(F)F)nn(C)c1OC(F)F)S(=O)(=O)c1cccc[n+]1[O-] (stereo not shown) [Compound 5] | lambsquarters | 0 |

Any idea what Plant response rating, Lambsquarters was measured for [O-][n+]1cc(Cl)ccc1[S+]([O-])Cc1c(C(F)(F)F)nn(CC(F)(F)F)c1Cl (stereo not shown) [Compound 47] ? 0

----------
test system: wild oat; assay: Test C pre-/postemergence test; format: in vivo, Avena fatua; conditions: preemergence, 125 g ai/ha; scale 0 (no effect) to 100 (complete control)
Listing of recorded Oat, Wild plant response rating by entry.
Keep the answer to the number alone.

The following compounds have reported results that may help.
| Compound | Oat, Wild plant response rating |
| --- | --- |
| Cc1cc[n+]([O-])c(S(=O)(=O)Cc2c(C(F)(F)F)nn(C)c2OC(F)F)c1 | 70 |
| Cc1cc[n+]([O-])c(S(=O)(=O)C(C)c2c(C(F)(F)F)nn(C)c2Cl)c1 (racemic) | 10 |
| Cn1nc(C(F)(F)F)c(C[S+]([O-])c2cccc[n+]2[O-])c1OC(F)F (centres unmarked) | 80 |
| CC(c1c(C(F)(F)F)nn(C)c1OC(F)F)S(=O)(=O)c1cccc[n+]1[O-] (centres unmarked) | 70 |

// lookup Oat, Wild plant response rating for Cn1nc(C(F)(F)F)c(C(Cl)S(=O)(=O)c2cccc[n+]2[O-])c1Cl (centres unmarked) 0
